- target.system: Nociceptin receptor (Homo sapiens)
- assay.comment: Efficacy for human ORL1 receptor expressing HEK293 cells
- Type: functional, cell-based
Peptide text beside a SMILES is read from it.
Items are presented alongside their recorded EC50.
The figure you give is taken to be in nM; do not add the unit.

Consider the worked cases shown below.
[[record]]
molecule = "C[C@H](NC(=O)[C@@H]1CSSC[C@H](NC(=O)[C@@H](NC(=O)[C@H](Cc2ccccc2)NC(=O)CNC(=O)CNC(=O)[C@@H](N)Cc2ccccc2)[C@@H](C)O)C(=O)N[C@@H](C)C(=O)N[C@@H](CCCNC(=N)N)C(=O)N[C@@H](CCCCN)C(=O)N1)C(=O)N[C@@H](CCCNC(=N)N)C(=O)N[C@@H](CCCCN)C(N)=O (HELM PEPTIDE1{F.G.G.F.T.C.A.R.K.C.A.R.K.[am]}$PEPTIDE1,PEPTIDE1,6:R3-10:R3$$$V2.0)"
endpoint_label = "EC50"
quantitative_result = 31.3

[[record]]
molecule = "C[C@@H]1NC(=O)CNC(=O)[C@H]([C@@H](C)O)NC(=O)[C@H](Cc2ccccc2)NC(=O)CNC(=O)CNC(=O)[C@H](Cc2ccccc2)NC(=O)[C@@H](N)CSSC[C@@H](C(=O)N[C@@H](CCCNC(=N)N)C(=O)N[C@@H](CCCCN)C(N)=O)NC(=O)[C@H](CO)NC(=O)[C@H](CCCCN)NC(=O)[C@H](CCCNC(=N)N)NC1=O (HELM PEPTIDE1{C.F.G.G.F.T.G.A.R.K.S.C.R.K.[am]}$PEPTIDE1,PEPTIDE1,1:R3-12:R3$$$V2.0)"
endpoint_label = "EC50"
quantitative_result = 439


Continue with the molecule presented below.
In: Quick check: EC50 of C[C@@H](O)[C@H](NC(=O)[C@H](Cc1ccccc1)NC(=O)CNC(=O)CNC(=O)[C@@H](N)Cc1ccccc1)C(=O)NCC(=O)N[C@H]1CSSC[C@@H](C(=O)N[C@@H](CCCN=C(N)N)C(=O)N[C@@H](CCCCN)C(N)=O)NC(=O)[C@H](CO)NC(=O)[C@H](CCCCN)NC(=O)[C@H](CCCN=C(N)N)NC1=O (HELM PEPTIDE1{F.G.G.F.T.G.C.R.K.S.C.R.K.[am]}$PEPTIDE1,PEPTIDE1,7:R3-11:R3$$$V2.0) ?
Out: 156

* * *

- target.system: Nociceptin receptor (Homo sapiens, UniProt P41146)
- Sequence (P41146 whole entry): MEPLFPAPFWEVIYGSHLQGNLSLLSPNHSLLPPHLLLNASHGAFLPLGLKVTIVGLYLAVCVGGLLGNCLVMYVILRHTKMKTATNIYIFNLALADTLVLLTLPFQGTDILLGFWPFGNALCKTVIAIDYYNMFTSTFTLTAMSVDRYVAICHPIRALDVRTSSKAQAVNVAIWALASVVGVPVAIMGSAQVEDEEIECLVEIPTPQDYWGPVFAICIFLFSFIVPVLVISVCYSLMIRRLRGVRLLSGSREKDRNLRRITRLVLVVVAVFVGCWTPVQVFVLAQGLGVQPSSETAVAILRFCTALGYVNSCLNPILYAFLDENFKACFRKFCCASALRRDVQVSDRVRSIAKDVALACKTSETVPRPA
- assay.comment: Efficacy for human ORL1 receptor expressing HEK293 cells
- Type: functional, cell-based
Peptide text beside a SMILES is read from it.
endpoint.label: EC50 (nM)
The figure you give is taken to be in nM; do not add the unit.

In: Quick check: EC50 of C[C@H](NC(=O)CNC(=O)[C@@H](NC(=O)[C@H](Cc1ccccc1)NC(=O)CNC(=O)CNC(=O)[C@@H](N)Cc1ccccc1)[C@@H](C)O)C(=O)N[C@@H](CCCNC(=N)N)C(=O)N[C@@H](CCCCN)C(=O)N[C@H]1CSSC[C@@H](C(N)=O)NC(=O)[C@H](CCCCN)NC(=O)[C@H](CCCNC(=N)N)NC(=O)[C@H](C)NC1=O (HELM PEPTIDE1{F.G.G.F.T.G.A.R.K.C.A.R.K.C.[am]}$PEPTIDE1,PEPTIDE1,10:R3-14:R3$$$V2.0) ?
Out: 4.37

* * *

- target.system: Nociceptin receptor (Homo sapiens)
- assay.comment: Efficacy for human ORL1 receptor expressing HEK293 cell membrane
- Assay type: functional, cell-based
Peptide text beside a SMILES is read from it.
endpoint.label: Emax (%)
The figure you give is taken to be in %; do not add the unit.

Consider the worked cases shown below.
[[record]]
compound = "C[C@@H]1NC(=O)[C@H](CO)NC(=O)[C@H](CCCCN)NC(=O)[C@H](CCCN=C(N)N)NC(=O)[C@@H](NC(=O)CNC(=O)[C@@H](NC(=O)[C@H](Cc2ccccc2)NC(=O)CNC(=O)CNC(=O)[C@@H](N)Cc2ccccc2)[C@@H](C)O)CSSC[C@@H](C(N)=O)NC(=O)[C@H](CCCCN)NC(=O)[C@H](CCCN=C(N)N)NC1=O (HELM PEPTIDE1{F.G.G.F.T.G.C.R.K.S.A.R.K.C.[am]}$PEPTIDE1,PEPTIDE1,7:R3-14:R3$$$V2.0)"
unit_annotation = "%"
quantitative_result = 95

[[record]]
compound = "C[C@H](NC(=O)[C@H](CO)NC(=O)[C@H](CCCCN)NC(=O)[C@H](CCCN=C(N)N)NC(=O)[C@H](C)NC(=O)[C@@H]1CSSC[C@H](N)C(=O)N[C@@H](Cc2ccccc2)C(=O)NCC(=O)NCC(=O)N[C@@H](Cc2ccccc2)C(=O)N[C@@H]([C@@H](C)O)C(=O)N1)C(=O)N[C@@H](CCCN=C(N)N)C(=O)N[C@@H](CCCCN)C(N)=O (HELM PEPTIDE1{C.F.G.G.F.T.C.A.R.K.S.A.R.K.[am]}$PEPTIDE1,PEPTIDE1,1:R3-7:R3$$$V2.0)"
unit_annotation = "%"
quantitative_result = 18

[[record]]
compound = "CC(C)C[C@H](NC(=O)[C@H](CCCCN)NC(=O)[C@H](CCCN=C(N)N)NC(=O)[C@H](C)NC(=O)[C@H](CO)NC(=O)[C@H](CCCCN)NC(=O)[C@H](CCCN=C(N)N)NC(=O)[C@H](C)NC(=O)CNC(=O)[C@@H](NC(=O)[C@H](Cc1ccccc1)NC(=O)CNC(=O)CNC(=O)[C@@H](N)Cc1ccccc1)[C@@H](C)O)C(N)=O (H-FGGFTGARKSARKL-NH2)"
unit_annotation = "%"
quantitative_result = 105


Continue with the compound presented below.
In: Give the reported Emax for C[C@H](NC(=O)CNC(=O)[C@@H](NC(=O)[C@H](Cc1ccccc1)NC(=O)CNC(=O)CNC(=O)[C@@H](N)Cc1ccccc1)[C@@H](C)O)C(=O)N[C@@H](CCCN=C(N)N)C(=O)N[C@@H](CCCCN)C(=O)N[C@H]1CSSC[C@@H](C(N)=O)NC(=O)[C@H](CCCCN)NC(=O)[C@H](CCCN=C(N)N)NC(=O)[C@H](C)NC1=O (HELM PEPTIDE1{F.G.G.F.T.G.A.R.K.C.A.R.K.C.[am]}$PEPTIDE1,PEPTIDE1,10:R3-14:R3$$$V2.0) (system: Nociceptin receptor (Homo sapiens)).
Out: 99

* * *

- target.system: Nociceptin receptor (Homo sapiens)
- assay.comment: Efficacy for human ORL1 receptor expressing HEK293 cell membrane
- Assay type: functional, cell-based
Peptide text beside a SMILES is read from it.
endpoint.label: Emax (%)
The figure you give is taken to be in %; do not add the unit.

Consider the worked cases shown below.
[[record]]
molecule = "C[C@H](NC(=O)[C@H](CS)NC(=O)[C@H](CCCCN)NC(=O)[C@H](CCCN=C(N)N)NC(=O)[C@H](C)NC(=O)[C@H](CS)NC(=O)[C@@H](NC(=O)[C@H](Cc1ccccc1)NC(=O)CNC(=O)CNC(=O)[C@@H](N)Cc1ccccc1)[C@@H](C)O)C(=O)N[C@@H](CCCN=C(N)N)C(=O)N[C@@H](CCCCN)C(N)=O (H-FGGFTCARKCARK-NH2)"
endpoint_label = "Emax"
quantitative_result = 94

[[record]]
molecule = "C[C@H](NC(=O)[C@@H]1CSSC[C@H](NC(=O)[C@@H](NC(=O)[C@H](Cc2ccccc2)NC(=O)CNC(=O)CNC(=O)[C@@H](N)Cc2ccccc2)[C@@H](C)O)C(=O)N[C@@H](C)C(=O)N[C@@H](CCCNC(=N)N)C(=O)N[C@@H](CCCCN)C(=O)N1)C(=O)N[C@@H](CCCNC(=N)N)C(=O)N[C@@H](CCCCN)C(N)=O (HELM PEPTIDE1{F.G.G.F.T.C.A.R.K.C.A.R.K.[am]}$PEPTIDE1,PEPTIDE1,6:R3-10:R3$$$V2.0)"
endpoint_label = "Emax"
quantitative_result = 99


Continue with the molecule presented below.
In: Quick check: Emax of C[C@H](NC(=O)CNC(=O)[C@@H](NC(=O)[C@H](Cc1ccccc1)NC(=O)CNC(=O)CNC(=O)[C@H](Cc1ccccc1)NC(=O)[C@@H](N)CS)[C@@H](C)O)C(=O)N[C@@H](CCCN=C(N)N)C(=O)N[C@@H](CCCCN)C(=O)N[C@@H](CS)C(=O)N[C@@H](C)C(=O)N[C@@H](CCCN=C(N)N)C(=O)N[C@@H](CCCCN)C(N)=O (H-CFGGFTGARKCARK-NH2) ?
Out: 59

* * *

- target.system: Nociceptin receptor (Homo sapiens, UniProt P41146)
- assay.comment: Efficacy for human ORL1 receptor expressing HEK293 cell membrane
- Format: functional, cell-based
Peptide text beside a SMILES is read from it.
endpoint.label: Emax (%)
The figure you give is taken to be in %; do not add the unit.

In: Quick check: Emax of C[C@H](NC(=O)[C@H](CO)NC(=O)[C@H](CCCCN)NC(=O)[C@H](CCCN=C(N)N)NC(=O)[C@H](C)NC(=O)[C@H](CS)NC(=O)[C@@H](NC(=O)[C@H](Cc1ccccc1)NC(=O)CNC(=O)CNC(=O)[C@H](Cc1ccccc1)NC(=O)[C@@H](N)CS)[C@@H](C)O)C(=O)N[C@@H](CCCN=C(N)N)C(=O)N[C@@H](CCCCN)C(N)=O (H-CFGGFTCARKSARK-NH2) ?
Out: 12
